target.entity: human P2Y6 receptor (Homo sapiens, UniProt Q15077)
Sequence (Q15077 whole entry): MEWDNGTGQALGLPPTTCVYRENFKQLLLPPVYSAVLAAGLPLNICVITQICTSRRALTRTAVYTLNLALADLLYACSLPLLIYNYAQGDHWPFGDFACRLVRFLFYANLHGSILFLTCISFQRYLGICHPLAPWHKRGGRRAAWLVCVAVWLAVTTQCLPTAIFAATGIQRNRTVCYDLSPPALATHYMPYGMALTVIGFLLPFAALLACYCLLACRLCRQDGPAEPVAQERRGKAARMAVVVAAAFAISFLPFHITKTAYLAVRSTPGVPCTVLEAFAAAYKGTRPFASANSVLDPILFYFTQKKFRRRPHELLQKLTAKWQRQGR
assay.comment: Fluo-3 calcium mobilization, FLIPR, […]1 cells
Please provide measured EC50 for the entries that follow.

Consider the worked cases shown below.
Nc1nc2c(ncn2[C@H]2C[C@H](O)[C@@H](COP(=O)(O)OP(=O)(O)OC[C@H]3O[C@@H](n4cnc5c(N)ncnc54)[C@H](O)[C@@H]3O)O2)c(=O)[nH]1 :: > 10 µM
O=c1ccn([C@@H]2O[C@H](COP(=O)(O)OP(=O)(O)OP(=O)(O)OP(=O)(O)OC[C@H]3O[C@@H](n4cnc5c(=O)[nH]cnc54)C[C@@H]3O)[C@@H](O)[C@H]2O)c(=O)[nH]1 :: > 10 µM

Q: GET EC50 where system = human P2Y6 receptor (Homo sapiens, UniProt Q15077) and item = Nc1nc2c(ncn2[C@H]2C[C@H](O)[C@@H](COP(=O)(O)OP(=O)(O)OC[C@H]3O[C@@H](n4ccc(=O)[nH]c4=O)[C@H](O)[C@@H]3O)O2)c(=O)[nH]1
Result: > 10 µM
